# tested_system: T1, human CD98 ECD (Homo sapiens, UniProt P08195)
# T1 construct: Human CD98 ECD with C-terminal His-tag
# T1 sequence (P08195 with tags, fused parts or gaps): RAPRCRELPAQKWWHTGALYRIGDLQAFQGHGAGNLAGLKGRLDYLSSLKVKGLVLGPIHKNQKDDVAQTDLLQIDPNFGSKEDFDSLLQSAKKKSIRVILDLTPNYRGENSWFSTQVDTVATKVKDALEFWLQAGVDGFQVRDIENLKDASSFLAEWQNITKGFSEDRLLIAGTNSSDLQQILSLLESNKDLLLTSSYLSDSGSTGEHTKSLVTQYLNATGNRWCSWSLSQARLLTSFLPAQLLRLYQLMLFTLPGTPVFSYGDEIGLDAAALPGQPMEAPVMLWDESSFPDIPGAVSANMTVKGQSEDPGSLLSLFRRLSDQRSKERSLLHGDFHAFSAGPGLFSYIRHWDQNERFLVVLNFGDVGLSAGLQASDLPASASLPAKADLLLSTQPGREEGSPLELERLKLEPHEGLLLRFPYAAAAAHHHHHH
# assay_summary: Biacore surface plasmon resonance binding kinetics (anti-Fc capture)
# experimental_setup: huCD98 ECD
Listing: kd of selected molecules

molecule: huAb15v4 (antibody, V domains shown) VH: EVQLVESGGGVVQPGRSLRLSCAASGFTFSDYTMAWVRQAPGKGLEWVATIIYTGRGTYYRDAVKGRFTISRDNSKSTLYLQMNSLRAEDTAVYYCARQSDDTYYYWGYFDYWGQGTMVTVSS VL: DIVMTQSPDSLAVSLGERATINCKSSQSLLFSGNQKNYLAWYQQKPGQSPKLLIYWASTRQSGVPDRFSGSGSGTDFTLTIRSLQAEDVAIYYCQQYYDVPYTFGQGTKLEIK
units: s⁻¹
kd: 2.8e-05
//
molecule: huAb109: "heavy chain variable sequence of huAb109 is provided in SEQ ID NO: 116"; "light chain variable sequence ... in SEQ ID NO: 117" (antibody, V domains shown) VH: EVQLVESGGGLVQPGGSLRLSCAASGFTFSDYTMAWVRQAPGKGLEWVATIIYDARGTYYRDAVKGRFTISRDNAKNTLYLQMNSLRAEDTAVYYCARQSDDTYYYWGYFDYWGQGTMVTVSS VL: DIVMTQTPLSLPVTPGEPASINCKSSQSLLFSGNQKNYLAWYLQKPGQSPQLLIYWASTRQSGVPDRFSGSGSGTDFTLKISRVEAEDVGIYYCQQYYSSPYTFGQGTKLEIK
units: s⁻¹
kd: 0.00017
//
molecule: huAb103: "heavy chain variable sequence of huAb103 is provided in SEQ ID NO: 109"; "light chain variable sequence ... in SEQ ID NO: 107" (antibody, V domains shown) VH: EVQLVESGGGLVKPGGSLRLSCATSGFTFIDYYMSWVRQAPGKGLEWLGFIRNKAYGYTTEYSASVKGRFTISRDNSKSILYLQMNSLKTEDTAVYYCTRDRPAWFVYWGQGTLVTVSS VL: DIVMTQTPLSLPVTPGEPASISCKSSQSLLYSSNQKNYLAWYLQKPGQSPQLLIYWASTRESGVPDRFSGSGSGTDFTLKISRVEAEDVGVYYCQQYYSYPYTFGGGTKVEIK
units: s⁻¹
kd: 0.00059
//
molecule: huAb15v5 (antibody, V domains shown) VH: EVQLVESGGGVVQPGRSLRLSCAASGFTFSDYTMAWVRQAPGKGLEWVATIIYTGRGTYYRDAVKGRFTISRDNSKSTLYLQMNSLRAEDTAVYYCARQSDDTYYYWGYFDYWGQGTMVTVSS VL: DIVMTQSPDSLAVSLGERATINCKSSQSLLFSGNQKNYLAWYQQKPGQSPKLLIYWASTRQSGVPDRFSGSGSGTDFTLTIRSLQAEDVAIYYCQQYYSSPYTFGQGTKLEIK
units: s⁻¹
kd: 0.00013
